All values here come from PubChem BioAssay (NCI).

A collection of compounds and their measured TGI
Test system: OVCAR-3 ovarian
Assay: NCI tumour cell line growth inhibition, 48 h
State the answer as a number, implicitly in µM.

// known answers, use as guide
compound	TGI, µM
COc1ccc2c(c1)C(=O)/C(=C/c1ncc([N+](=O)[O-])n1C)O2	5.11
Fc1ccc(C2SCc3nc4ccccc4n32)cc1 (stereo not given)	77.6
Cc1cc(Cc2cc(C)cc(C(C)(C)C)c2O)c(O)c(C(C)(C)C)c1	13.1

The compound c1cn2cc(-c3ccc4cn[nH]c4c3)nc(Nc3ccc(N4CCOCC4)cc3)c2n1 on OVCAR-3 ovarian: TGI was 40.2

O=Nc1ccc2ccccc2c1O tested on OVCAR-3 ovarian gave TGI: 5.01

----------
Test system: SF-539 CNS
Experiment: NCI tumour cell line growth inhibition, 48 h
experimental-endpoint: TGI

Previously resolved entries follow.
compound	TGI
O=C1c2c(nc3ccccc3c2-c2ccccc2)CN1Nc1ccccn1	99.5 µM
O=c1c2cc(I)ccc2nc(Sc2ncccc2[N+](=O)[O-])n1Cc1ccccc1	> 100 µM
CCOC(=O)/C=C(\C(=O)OCC)n1ccc(N)nc1=O	> 100 µM

// returns TGI for C1OC1CO[C@@H]1CO[C@H]2[C@@H]1OC[C@H]2OCC1CO1 (stereo partly specified) with SF-539 CNS; value = > 100 µM

Observed TGI on SF-539 CNS, entry c1ccc(-c2nc(-c3ccccc3)c(-c3ccccc3)[nH]2)cc1 , equals > 100 µM

COc1ccccc1C#Cc1ccccc1C#CCCCCCC#Cc1ccccc1C#Cc1ccccc1OC on SF-539 CNS gives TGI = > 100 µM

Form: item c1cn2cc(-c3ccc4cn[nH]c4c3)nc(Nc3ccc(N4CCOCC4)cc3)c2n1 ; test system SF-539 CNS; TGI: 23.1 µM

Field TGI (system: SF-539 CNS) for entry COc1ccc(N=N/C(=N/NC(=O)c2ccccc2)c2ccc(N(CCC#N)CCC#N)cc2C)cc1 = 70 µM

# lookup: CCOC(=O)C1SC(=Nc2ccc(Cl)c(Cl)c2)N=C1C (stereo unspecified) on SF-539 CNS, TGI = > 100 µM

Item: NC(=O)c1ccc2c(c1)S(=O)(=O)c1ccccc1C2=O | System: SF-539 CNS | TGI: > 100 µM

TGI for SF-539 CNS with input CSc1c(C#N)c(=O)[nH]c2n[nH]c(C)c12 equals > 100 µM

----------
The reader will find reported GI50 values listed item by item below.
Test system: MCF7 breast
Test: NCI tumour cell line growth inhibition, 48 h

1. CN1CCN(Cc2ccc(NC(=O)c3ccc(C#Cc4c(N)ncc5ccc(F)cc45)cc3)cc2C(F)(F)F)CC1 0.837 µM
2. Cc1c2c[n+](C(C)C)ccc2c(C)c2c1[nH]c1ccccc12 1.85 µM
3. NS(=O)(=O)c1cccc(N=Cc2c(O)[nH]c3ccccc23)c1 > 25 µM
4. COc1ccccc1C#Cc1ccccc1C#CCCCCCC#Cc1ccccc1C#Cc1ccccc1OC 17.3 µM

Okay, now this molecule:
Item: O=C(c1ccco1)c1c(C(F)(F)F)n([O-])c2ccccc2[n+]1=O | System: MCF7 breast | GI50: 0.458 µM

----------
Entries annotated with measured TGI
System: KM20L2 colon
Test: NCI tumour cell line growth inhibition, 48 h
Please reply with the bare figure in µM and do not write the unit itself.

Examples with their reported TGI follow.
compound	TGI, µM
CCCCOP1(=O)C=C(C)C(=C(Cl)Cl)C(C)=C1 (stereo unspecified)	5.13
O=[Se](=O)c1ccccc1.O=[Se](=O)c1ccccc1.[Cu]	35.1
CC(C)(C)C(=O)ON1N=NC2C3CC(OCc4ccccc4)(OCc4ccccc4)C(O3)C21 (stereo unspecified)	77.5

Now look at this entry.
The compound identified as CN(C)CCSC(=Nc1ccccc1)N1CCCCC1 registered its TGI at 31.7

----------
Test system: SR leukemia
Assay: NCI tumour cell line growth inhibition, 48 h; in the data active means GI50 below about 0.43 µM; inactive means the rest
Outcomes you can answer with include only these: yes for active, no for inactive

compound	class-name
CC(=O)O/N=C1/C(c2c(O)[nH]c3cc(Br)ccc23)=Nc2ccccc21	no
Cc1c(C)[n+](=O)c(C)c(C)n1[O-]	no
COc1cccc2c1C(=O)c1c(O)c3c(c(O)c1C2=O)C[C@@](O)(C(=O)CO)C[C@@H]3OC1C[C@H](N)[C@H](O)[C@H](C)O1 (stereo partly drawn)	yes
C=CC(=O)N[C@H]1CCOC[C@H]1Nc1ncc2cc(-c3c(Cl)c(OC)cc(OC)c3Cl)ccc2n1	no
COc1cc2c[n+](C)c3c4ccccc4ccc3c2cc1OC (tested in a mixture with another compound)	no

Lab log entry: O=C(CCl)N1c2ccccc2Sc2ccc3ccccc3c21 — outcome as called in the assay?
no

Assay outcome for CC(C)NC(=O)OCc1c(COC(=O)NC(C)C)c(-c2ccc(Cl)cc2)n2c1CCC2 : what was it?
yes

Tell me the recorded outcome of this test for O=C(O)c1cc2cc(OCc3ccccc3)c(OCc3ccccc3)cc2[nH]1 .
no

What did this assay record as the result for S=C1Nc2ccc(Cl)cc2C2(c3ccccc3)N3CCN=C3NN12 (stereo not drawn) ?
no

For this compound, state the assay outcome: CCOC(=O)/C=C/C(C(=O)/C=C/c1ccc(O)c(OC)c1)=C(O)\C=C\c1ccc(O)c(OC)c1
no

Each compound tested received a call. Report the one for COc1ccc2nc3cc(Cl)ccc3c(NCCCNCCC(C)O)c2c1 (stereo not drawn) .
yes

Per the assay record, what outcome was assigned to C=C1C(=O)O[C@H]2[C@H]1CC/C(COC(=O)NCCc1c[nH]c3ccc(OC)cc13)=C\CC[C@@]1(C)O[C@@H]21 ?
no

Per the assay record, what outcome was assigned to COc1cc(/C=C2\CN(C)C/C(=C\c3cc(CN4CCCCC4)c(O)c(OC)c3)C2=O)cc(CN2CCCCC2)c1O ?
no

----------
Test system: NCI-H522 lung
Assay: NCI tumour cell line growth inhibition, 48 h
*1 amine or outer side, *2 acyl side, *3 side chain or, on linkers, in order; H or OH if unused. Where a SMILES comes first, the peptide text is derived from it. Bridges are numbered along the chain shown (N, C = ends). Roman numbers before positions name the chains, in order. [ ]: non-standard residue; d: D form. Actinocin(9to1) = Cc1c2oc3c(C)ccc(C(=O)[*:1])c3nc-2c(C(=O)[*:2])c(N)c1=O; NMeV = CN[CH](C(=O)O)C(C)C; Sar = CNCC(=O)O
experimental-endpoint: TGI (µM)
Just the number in µM, nothing appended.

Consider the reported TGI for these compounds:
compound	TGI / µM
O=C(c1ccccc1)c1ccc2nc(-c3c(Cl)c(Cl)c(Cl)c(Cl)c3C(=O)N/N=C/c3ccccc3)[nH]c2c1	55.3
CC[C@H](C)[C@H]1NC(=O)[C@@H](NC(=O)[C@@H](CC(C)C)N(C)CC2CCCN2C(=O)C(C)=O)[C@@H](C)OC(=O)[C@H](Cc2ccc(OC)cc2)N(C)C(=O)C2CCCN2C(=O)[C@H](CC(C)C)NC(=O)[C@@H](C)C(=O)[C@H](C(C)C)OC(=O)C[C@@H]1O (stereo not given in full)	0.0523
C#Cc1c(C(N)=O)ncn1C1OC(COP(=O)(OCc2ccc([N+](=O)[O-])o2)N(C)CCCCCl)C(O)C1O (stereo not given)	88.1

NCI-H522 lung TGI of CCOC(=O)C(=Cc1ccc(C(=O)OC)cc1)C(=O)OCC is 2.8

Known value: NCI-H522 lung TGI of the compound Cc1c2oc3c(C)ccc(C(=O)NC4C(=O)NC(C(C)O)C(=O)N5CCCC5C(=O)N(C)CC(=O)N(C)C(C(C)C)C(=O)OC4C)c3nc-2c(C(=O)NC2C(=O)NC(C(C)O)C(=O)N3CCCC3C(=O)N(C)CC(=O)N(C)C(C(C)C)C(=O)OC2C)c(N)c1=O (stereo not given) (I: TTP[Sar][NMeV] / II: TTP[Sar][NMeV]; ester I:1-I:C, II:1-II:C; linker I:N-II:N via Actinocin(9to1); configuration not given here) equals 1.14

NCI-H522 lung data for Nc1c(C(=O)Nc2ccccc2)[n+]([O-])c2ccccc2[n+]1[O-] ; its TGI: 4.4

Field TGI (NCI-H522 lung), entry C=C(C)C(=O)[C@@]12C(=O)[C@@H](C)CC[C@H]1[C@H](C)C[C@@H]2C=C(C)C : 27.7

----------
Measured GI50 by item
System: SF-268 CNS
Assay: NCI tumour cell line growth inhibition, 48 h

molecule	GI50
COc1ccc(C(=O)c2cc3c(OC)c(OC)c(OC)cc3[nH]2)cc1	68.1 µM
COc1ccccc1C#Cc1ccccc1C#CCCCCCC#Cc1ccccc1C#Cc1ccccc1OC	96.5 µM

Record O=C(Cc1cccc(OC(F)(F)F)c1)Nc1ccc(CCCCc2nnc(NC(=O)Cc3ccccn3)s2)nn1 . Reported GI50: 13.6 µM

get_value(item= O=C(c1ccco1)c1c(C(F)(F)F)n([O-])c2ccccc2[n+]1=O , readout=GI50) returns 0.515 µM

Reported GI50 for CCN1c2ccccc2C(Cl)(c2ccc(N(C)C)cc2)c2ccccc21 was 5.61 µM

Query O=[Se](=O)c1ccccc1.O=[Se](=O)c1ccccc1.[Cu] yields GI50 of 17.8 µM

The value of GI50 measured for the molecule N#CC1=C(N)NC(=O)NC12Nc1ccccc1S2 (stereo unspecified) turned out to be 23.6 µM

For this molecule ( COc1ccc(-n2c3c(c4c(CN5CCOCC5)c(O)ccc42)CCc2ccccc2C3=O)cc1 ), measured GI50 is > 100 µM

Input O=C(N/N=C/c1ccccc1O)C(=O)Nc1ccc(F)cc1 . Output GI50: 2.77 µM

Lab book: GI50 of O=C(CCl)N1c2ccccc2Sc2ccc3ccccc3c21 noted as 1.64 µM

Query CC(=O)O/N=C1/C(c2c(O)[nH]c3cc(Br)ccc23)=Nc2ccccc21 yields GI50 of 1.62 µM
